Measured apparent Kd, listed per entry for reference.
test system: MS2 coat protein; test: apparent Kd, MS2 coat protein; higher = weaker binding; RNA-MaP array; FMN 200 µM where present; settings: ligand present: flavin mononucleotide; designed as: OFF switch for flavin mononucleotide
Respond numerically; units are nM and should not be typed.

Consider the worked cases shown below.
[
  {
    "Biopolymer sequence": "GGAUAAUUGAUCCUUUUUUAUUACAUGAGGAUCACCCAUGUGCAGGAUAUCGAUUAUUAUAGUUUCGAGAAGGGCAAGAAUUGU",
    "Result type": "apparent Kd",
    "Numeric result": 276
  },
  {
    "Biopolymer sequence": "CCAUGUUAGCAGGAUAUGCAAUAAAUCUUUUAAGCAGAAGGGCUUACAUGAGGAUCACCCAUGUAUAAUUUCAA",
    "Result type": "apparent Kd",
    "Numeric result": 116
  },
  {
    "Biopolymer sequence": "CCUGUGUGAGGAUAUGUACUGCUCCUGUCCAACAGUGUAGAGCAGAAGGCACAUGAGGAUCACCCAUGUGAAAA",
    "Result type": "apparent Kd",
    "Numeric result": 23.1
  },
  {
    "Biopolymer sequence": "AGAUGGUGAUGUUAUCUUCGUCGGACAUGAGGAUCACCCAUGUAGGAUAUGCUACUAAAAUAGUAGCAGAAGGACAUGUAUCUU",
    "Result type": "apparent Kd",
    "Numeric result": 1030
  },
  {
    "Biopolymer sequence": "ACUAGAUGAGGAUAUGCAUGUUUUCAUGUUCUUCUAGAUUAACAUGAGGAUCACCCAUGUAGAAGGCGUCUUUU",
    "Result type": "apparent Kd",
    "Numeric result": 32
  }
]

query: Name the recorded apparent Kd for "UCCUUGUCCUGAGGAUAUCCGCGGUUCCCAAAAGGAGAAGGCAGGACAUGAGGAUCACCCAUGUACCCAGAAAACGUGCAGAUU" .
result: 46.8

query: // next record "UAUGGUUAAGUCAGGAUAUGCUCAUAGAGGUCUGUGCAGAAGGGACAUGAGGAUCACCCAUGUAUGGUCGUGUU"
result: 237

query: Thanks! And "UUCAUGUGAGGAUAUAGUACUUCUUCUAUUAUUAUUGAGUACUAGAAGGCACAUGAGGAUCACCCAUGUAGUAC" ?
result: 20.9

query: What would you report for "UAGAAGUCAGGAUAUCCAUGGCGGCACUUGCGUGGUGGCGUGGAGAAGGGACAUGAGGAUCACCCAUGUAAAGU" ?
result: 48.5

query: Param item: "GGGUACAGUGAGAAGGUCUGCGGAUUCCUUAACAUGAGGAUCACCCAUGUAGAAGGAUAUCACAGGUAAAGGUCGGCUAACGAU"
result: 6.58

query: Now give it for "CAGCGAAAGCUGAAUCUGUAGAGAGAGGAUAUACGUCAUAAGGUGCAUACAUGAGGAUCACCCAUGUAGAAGGCUCUCUACAGU" too.
result: 603

query: Could you do the same for "GACACCGUGUAGAAGGACCAGUGCGCUACUAUGGUAGGAUAUACAUGAGGAUCACCCAUGUGACGGCUUUCGGUGGGAGCAGUG" , please?
result: 19.8

query: Here is the next sequence: "CCUAUGUGAGGAUAUCACUGGUCUGCUCACUAGAUGAUCAGUGAGAAGGCACAUGAGGAUCACCCAUGUCAGUG"
result: 41.7

query: Would you kindly repeat that for "GAUCCUUCUGUUAGGAUAUGCUUUGGGCUUCCGCAGCAGAAGGAACAUGAGGAUCACCCAUGUCCAAUACCAUC" ?
result: 41.8

query: Similarly, "GAGGAGGUAGGAUAUACGAUAAUAUAGGGUAGAUAUAUAACACAUGAGGAUCACCCAUGUAGAAGGACCAGGAG" ?
result: 62.4
